# Tested on: T. gondii (ΔKu80::mNeonGreen)
# assayNotes: T. gondii growth inhibition assay (mNeonGreen fluorescence)
# Format: cell-based, Toxoplasma gondii
# measurementConditions: Toxoplasma gondii, 96 h, read-out: IC50 against T. gondii
attributeMeasured: IC50 (nM)
Value expressed in nM; do not type the unit.

Which IC50 value is on record for C[C@H]1[C@H](OC(=O)CCC(=O)O)O[C@@H]2O[C@@]3(C)CC[C@H]4[C@H](C)CC[C@@H]1[C@@]24OO3 [Artesunate, artesunate] ?
200

* * *

Property: E 1/2; scope: individual compounds
# assayNotes: Cyclic voltammetry (oxidation/reduction potentials)
# Type: physicochemical
# measurementConditions: Ag/AgCl electrode, scan rate 100 mV s^−1, 0.100 M [NBu4][PF6] in MeCN
Value expressed in V; do not type the unit.

// known answers, use as guide
Which E 1/2 value is on record for CC1CCC2C(C)C(OC(=O)CCC(=O)OCCNC(=O)[c-]3cccc3)OC3OC4(C)CCC1C32OO4.[Fe+2].c1cc[cH-]c1 (centres unmarked) ?
0.623

Which E 1/2 value is on record for [Fe+2].c1cc[cH-]c1.c1cc[cH-]c1 [Ferrocene, reference compound] ?
0.446

Which E 1/2 value is on record for CC1CCC2C(C)C(OC(=O)CCC(=O)OC[c-]3cccc3)OC3OC4(C)CCC1C32OO4.[Fe+2].c1cc[cH-]c1 (centres unmarked) ?
0.503

Which E 1/2 value is on record for CC1CCC2C(C)C(OC(=O)CCC(=O)NCCNC(=O)[c-]3cccc3)OC3OC4(C)CCC1C32OO4.[Fe+2].c1cc[cH-]c1 (centres unmarked) ?
0.616

Please find the next compound below.
Which E 1/2 value is on record for CC1CCC2C(C)C(OC(=O)CCC(=O)NC[c-]3cccc3)OC3OC4(C)CCC1C32OO4.[Fe+2].c1cc[cH-]c1 (centres unmarked) ?
0.364

* * *

# assayNotes: Cyclic voltammetry (oxidation/reduction potentials)
# Type: physicochemical
# measurementConditions: Ag/AgCl electrode, scan rate 100 mV s^−1, 0.100 M [NBu4][PF6] in MeCN
Mark class 0 for ΔE values under 0.1 V, and class 1 for everything at or above.

Assess whether reported ΔE for CC1CCC2C(C)C(OC(=O)CCC(=O)OC[c-]3cccc3)OC3OC4(C)CCC1C32OO4.[Fe+2].c1cc[cH-]c1 (centres unmarked) sits at 0.1 V or higher.
class 1

Assess whether reported ΔE for CC1CCC2C(C)C(OC(=O)CCC(=O)NC[c-]3cccc3)OC3OC4(C)CCC1C32OO4.[Fe+2].c1cc[cH-]c1 (centres unmarked) sits at 0.1 V or higher.
class 0

Assess whether reported ΔE for [Fe+2].c1cc[cH-]c1.c1cc[cH-]c1 [Ferrocene, reference compound] sits at 0.1 V or higher.
class 1

Assess whether reported ΔE for CC1CCC2C(C)C(OC(=O)CCC(=O)NCCNC(=O)[c-]3cccc3)OC3OC4(C)CCC1C32OO4.[Fe+2].c1cc[cH-]c1 (centres unmarked) sits at 0.1 V or higher.
class 0

More entries:
Assess whether reported ΔE for CC1CCC2C(C)C(OC(=O)CCC(=O)OCCNC(=O)[c-]3cccc3)OC3OC4(C)CCC1C32OO4.[Fe+2].c1cc[cH-]c1 (centres unmarked) sits at 0.1 V or higher.
class 0

* * *

# assayNotes: Cyclic voltammetry (oxidation/reduction potentials)
# Assay type: physicochemical
# measurementConditions: Ag/AgCl electrode, scan rate 100 mV s^−1, 0.100 M [NBu4][PF6] in MeCN
Property: E Red; scope: individual compounds
Value expressed in V; do not type the unit.

Which E Red value is on record for CC1CCC2C(C)C(OC(=O)CCC(=O)NC[c-]3cccc3)OC3OC4(C)CCC1C32OO4.[Fe+2].c1cc[cH-]c1 (centres unmarked) ?
0.327

Which E Red value is on record for [Fe+2].c1cc[cH-]c1.c1cc[cH-]c1 [Ferrocene, reference compound] ?
0.393

Which E Red value is on record for CC1CCC2C(C)C(OC(=O)CCC(=O)OCCNC(=O)[c-]3cccc3)OC3OC4(C)CCC1C32OO4.[Fe+2].c1cc[cH-]c1 (centres unmarked) ?
0.588

Which E Red value is on record for CC1CCC2C(C)C(OC(=O)CCC(=O)OC[c-]3cccc3)OC3OC4(C)CCC1C32OO4.[Fe+2].c1cc[cH-]c1 (centres unmarked) ?
0.445

Please find the next compound below.
Which E Red value is on record for CC1CCC2C(C)C(OC(=O)CCC(=O)NCCNC(=O)[c-]3cccc3)OC3OC4(C)CCC1C32OO4.[Fe+2].c1cc[cH-]c1 (centres unmarked) ?
0.571

* * *

Property: pIC50; scope: individual compounds
# System: T. gondii (ΔKu80::mNeonGreen)
# assayNotes: T. gondii growth inhibition assay (mNeonGreen fluorescence)
# Assay type: cell-based, Toxoplasma gondii
# measurementConditions: four days, in HFF host cells, three independent experiments in triplicate, ± SEM; read-out: IC50 against T. gondii
# Source text: […]. The rate of hydrolysis of C2 and C4 is closely correlated to the activity seen against T. gondii, such that the more readily the complex separates into its constituents, parts the better the overall activity. To further investigate whether the accumulation of ROS was implicated in the MoA, the growth inhibition studies were repeated in the presence of the ROS scavenger N-acetyl cysteine (NAC) (Table 5). […]
Just the number, please; pIC50 means minus log10 of the concentration in mol/L.

// known answers, use as guide
Which pIC50 value is on record for CC1CCC2C(C)C(OC(=O)CCC(=O)OCCNC(=O)[c-]3cccc3)OC3OC4(C)CCC1C32OO4.[Fe+2].c1cc[cH-]c1 (stereo not shown) ?
6.17

Which pIC50 value is on record for CC1CCC2C(C)C(OC(=O)CCC(=O)NC[c-]3cccc3)OC3OC4(C)CCC1C32OO4.[Fe+2].c1cc[cH-]c1 (stereo not shown) ?
6.22

Which pIC50 value is on record for CC1CCC2C(C)C(OC(=O)CCC(=O)NCCNC(=O)[c-]3cccc3)OC3OC4(C)CCC1C32OO4.[Fe+2].c1cc[cH-]c1 (stereo not shown) ?
5.92

Please find the next compound below.
Which pIC50 value is on record for CC1CCC2C(C)C(OC(=O)CCC(=O)OC[c-]3cccc3)OC3OC4(C)CCC1C32OO4.[Fe+2].c1cc[cH-]c1 (stereo not shown) ?
6.55

meta.source: paper PMC10628858
